System: Acinetobacter baumannii
measurement_notes: Antimicrobial activity against OXA-23/OXA-58 producing Acinetobacter baumannii SR27323 in presence of human apo-transferrin by broth microdilution method
Format: functional
I'd be grateful if you could share measured MIC for these entries.
Kindly answer with a numeric value in µg/mL, unit omitted.

Enter reported MIC observed with Acinetobacter baumannii for "CC(C)(O/N=C(\C(=O)N[C@@H]1C(=O)N2C(C(=O)[O-])=C(C[N+]3(CCNC(=O)c4cc(=O)c(O)c[nH]4)CCCC3)CS[C@H]12)c1csc(N)n1)C(=O)O"
1

Find MIC (Acinetobacter baumannii) for the entry "CC(C)(O/N=C(\C(=O)N[C@@H]1C(=O)N2C(C(=O)[O-])=C(C[N+]3(CCNC(=O)c4ccc(O)c(O)c4Cl)CCCC3)CS[C@H]12)c1csc(N)n1)C(=O)O"
1

Which measured MIC belongs to "NCC[N+]1(CC2=C(C(=O)[O-])N3C(=O)[C@@H](NC(=O)/C(=N\O[C@@H](CNC(=O)c4ccc(O)c(O)c4Cl)C(=O)O)c4csc(N)n4)[C@H]3SC2)CCCC1" , tested on Acinetobacter baumannii?
0.5

Form: Entry = "CC(C)(O/N=C(\C(=O)N[C@@H]1C(=O)N2C(C(=O)[O-])=C(C[N+]3(CCNC(=O)c4cc(O)c(O)c(Cl)c4)CCCC3)CS[C@H]12)c1csc(N)n1)C(=O)O" | System = Acinetobacter baumannii | MIC = ____
0.25

Kindly state the measured MIC obtained for "CC(C)(O/N=C(\C(=O)N[C@@H]1C(=O)N2C(C(=O)[O-])=C(C[N+]3(CCC(=O)Nc4ccc(O)c(O)c4Cl)CCCC3)CS[C@H]12)c1csc(N)n1)C(=O)O" with Acinetobacter baumannii.
2
